tested on: HIV-1 replication in H9 cells; experiment: HIV-1 replication inhibition in acutely infected H9 lymphocytes (p24 antigen ELISA); assay type: cell-based, HIV-1 (IIIB strain); conditions: Human immunodeficiency virus 1, H9, Table 3, H9 lymphocytes
measurementKind: pEC50
In plain terms, pEC50 is the concentration in mol/L turned into minus its base-10 logarithm.

Entry Cc1cn([C@H]2C[C@H](N=[N+]=[N-])[C@@H](CO)O2)c(=O)[nH]c1=O [AZT, azidothymidine, reference compound] — recorded pEC50 = 7.40

====

test system: HIV-1 replication in PBMCs; experiment: HIV-1 replication in acutely infected PBMCs; type: cell-based, HIV-1 (IIIB); conditions: Human immunodeficiency virus 1, PBMC; PBMCs
measurementKind: pEC50
In plain terms, pEC50 is the concentration in mol/L turned into minus its base-10 logarithm.

Entry CC(=O)O[C@@H]1[C@H](OC(=O)CC(C)C)c2c(ccc3ccc(=O)oc23)OC1(C)C — recorded pEC50 = 5.41

====

test system: HIV-1 replication in H9 cells; assay: HIV-1 replication inhibition in acutely infected H9 lymphocytes (p24 antigen ELISA); type: cell-based, HIV-1 (IIIB strain); conditions: Human immunodeficiency virus 1, H9, Table 17; acutely infected H9 lymphocytes; read-out: EC50
measurementKind: pEC50
In plain terms, pEC50 is the concentration in mol/L turned into minus its base-10 logarithm.

Examples with their reported pEC50 follow.
>>> df
                               samplesmiles  valuereported
0  CC1(C)Oc2ccc3ccc(=O)oc3c2[C@@H](OC(=O)[C@@]23CC[C@@](C)(C(=O)O2)C3(C)C)[C@@H]1OC(=O)[C@@]12CC[C@@](C)(C(=O)O1)C2(C)C           4.49
1  CC1(C)Oc2ccc3ccc(=O)oc3c2[C@H](OC(=O)[C@@]23CC[C@@](C)(C(=O)O2)C3(C)C)[C@@H]1OC(=O)[C@@]12CC[C@@](C)(C(=O)O1)C2(C)C           4.29
2  CC(=O)O[C@@H]1[C@H](OC(=O)CC(C)C)c2c(ccc3ccc(=O)oc23)OC1(C)C           5.89

Entry CC1(C)Oc2ccc3ccc(=O)oc3c2[C@@H](OC(=O)[C@@]23CC[C@@](C)(C(=O)O2)C3(C)C)[C@H]1OC(=O)[C@@]12CC[C@@](C)(C(=O)O1)C2(C)C — recorded pEC50 = 9.39

====

Below: a set of entries, each annotated with reported log10 of EC50.
test system: HIV-1 replication in H9 cells; assay: HIV-1 replication inhibition in acutely infected H9 lymphocytes (p24 antigen ELISA); format: cell-based, HIV-1 (IIIB strain); conditions: Human immunodeficiency virus 1, H9, acutely infected H9 cells; concentration which inhibits viral replication by 50%; Inactive = No suppression of HIV-1 replication in H9 cells; read-out: EC50
Values are log10 of EC50 in µM.

Examples with their reported log10 of EC50 follow.
>>> print(df.to_string())
                                   compound  valuereported
0  CC1(C)O[C@H]1COc1c2ccoc2cc2oc(=O)ccc12 [Oxypeucedanin, oxypeucedanin, reference compound]           1.50
1  CC(=O)O[C@@H]1[C@H](OC(=O)CC(C)C)c2c(ccc3ccc(=O)oc23)OC1(C)C           0.11
2  CC(C)=CCOc1c2ccoc2cc2oc(=O)ccc12 [Isoimperatorin, isoimperatorin, reference compound]           1.61
3  C/C=C(/C)C(=O)OC(C)(C)[C@@H]1Cc2c(ccc3ccc(=O)oc23)O1 [Columbianadin, columbianadin, reference compound]           0.66

Then there is this compound:
Form field, log10 of EC50 with HIV-1 replication in H9 cells, item COc1c2ccoc2cc2oc(=O)ccc12 [Bergapten, bergapten, reference compound] : 1.48

====

tested on: HIV-1 replication in H9 cells; assay: HIV-1 replication inhibition in acutely infected H9 lymphocytes (p24 antigen ELISA); format: cell-based, HIV-1 (IIIB strain); settings: Table 17; H9
measurementKind: Therapeutic Index

compound	Therapeutic Index
CC1(C)Oc2ccc3ccc(=O)oc3c2[C@@H](OC(=O)[C@@]23CC[C@@](C)(C(=O)O2)C3(C)C)[C@@H]1OC(=O)[C@@]12CC[C@@](C)(C(=O)O1)C2(C)C [Compound 45]	> 1
CC1(C)Oc2ccc3ccc(=O)oc3c2[C@H](OC(=O)[C@@]23CC[C@@](C)(C(=O)O2)C3(C)C)[C@@H]1OC(=O)[C@@]12CC[C@@](C)(C(=O)O1)C2(C)C [Compound 17]	> 33.3
CC1(C)Oc2ccc3ccc(=O)oc3c2[C@H](OC(=O)[C@@]23CC[C@@](C)(C(=O)O2)C3(C)C)[C@H]1OC(=O)[C@@]12CC[C@@](C)(C(=O)O1)C2(C)C [Compound 44]	> 1
CC(=O)O[C@@H]1[C@H](OC(=O)CC(C)C)c2c(ccc3ccc(=O)oc23)OC1(C)C [Suksdorfin, suksdorfin]	> 40

Then there is this compound:
Form field, Therapeutic Index with HIV-1 replication in H9 cells, item Cc1cn([C@H]2C[C@H](N=[N+]=[N-])[C@@H](CO)O2)c(=O)[nH]c1=O [AZT, azidothymidine, reference compound] : 12,500

====

system: uninfected H9 cells; test: Toxicity to uninfected H9 cells (cell growth); type: cell-based; details: Homo sapiens, H9, read-out: IC50 (μM)^a, Table 14; concentration which inhibits uninfected cell growth by 50%
measurementKind: IC50

In [3]: df
Out[3]:
                                   compound  valuereported
0  CC(C)=CCOc1c2occc2cc2ccc(=O)oc12 [Imperatorin, imperatorin, reference compound]      > 74.1 µM

Then there is this compound:
Entry C/C=C(/C)C(=O)O[C@@H]1c2c(ccc3ccc(=O)oc23)OC(C)(C)[C@@H]1OC(C)=O [Pteryxin, pteryxin, reference compound] — recorded IC50 = > 10.4 µM
